Each entry below carries its recorded half-life.
# protocol_details: Single dose pharmacokinetic study in mice (iv 4 mg/Kg, po 20 mg/Kg), plasma concentration post-dosing
# Format: in vivo, mouse
# condition_details: male, C57BL/6, mouse, plasma, iv, 4 mg/kg, mouse, IV 4 mg/Kg, individual mice M1-M3; read-out: T1/2 (converted)
measured_metric: half-life (h)

> print(dat)
                                   compound  observed.measurement
1  CC(C)n1ccc(S(=O)(=O)NC(=O)Nc2c3c(cc4c2CCC4)CCC3)n1                  3.62
2  CC(C)(O)c1coc(S(=O)(=O)NC(=O)Nc2c3c(cc4c2CCC4)CCC3)c1 [MCC_000950_016, reference compound]                     2
